For each record, write down the corresponding MCC.
- Tested on: HEL
- assayComment: In vitro alteration in cell morphology in HEL cells.
- Format: functional
- reportedConditions: Homo sapiens

Suppose we examine the compound "O=C1c2ccccc2N(Cc2cccc(Cl)c2)S(=O)(=O)N1Cc1ccccc1" ; what MCC value has been reported? > 5 µM

Suppose we examine the compound "O=C1c2ccccc2N(Cc2ccc(Cl)cc2)S(=O)(=O)N1Cc1ccc(Cl)cc1" ; what MCC value has been reported? > 50 µM

Suppose we examine the compound "O=C1c2ccccc2N(Cc2ccccc2)S(=O)(=O)N1Cc1ccccc1" ; what MCC value has been reported? > 50 µM

Suppose we examine the compound Nc1nc2c(ncn2COC(CO)CO)c(=O)[nH]1 [GANCICLOVIR] ; what MCC value has been reported? > 150 µM

Suppose we examine the compound Nc1nc2c(ncn2COCCO)c(=O)[nH]1 [ACYCLOVIR] ; what MCC value has been reported? > 150 µM

Suppose we examine the compound Nc1ccn(C[C@@H](CO)OCP(=O)(O)O)c(=O)n1 [CIDOFOVIR] ; what MCC value has been reported? > 159 µM

Suppose we examine the compound "O=C1c2ccccc2N(COCc2ccccc2)S(=O)(=O)N1Cc1ccccc1" ; what MCC value has been reported? 122 µM

Suppose we examine the compound "O=C1c2ccccc2N(Cc2ccccc2Cl)S(=O)(=O)N1Cc1ccccc1Cl" ; what MCC value has been reported? > 20 µM

Suppose we examine the compound "O=C1c2ccccc2N(Cc2ccc(Cl)cc2)S(=O)(=O)N1Cc1ccccc1" ; what MCC value has been reported? > 5 µM

Suppose we examine the compound "O=C1c2ccccc2N(COCc2ccccc2)S(=O)(=O)N1COCc1ccccc1" ; what MCC value has been reported? 200 µM

Suppose we examine the compound "O=C1c2ccccc2N(Cc2ccccc2)S(=O)(=O)N1Cc1ccccc1Cl" ; what MCC value has been reported? 200 µM
